Recorded ACTIVITY RELATIVE TO FERREDOXIN (%), one value per entry.
# SUBJECT_OF_TEST: nitrogenase (Azotobacter vinelandii)
# Construct: the nitrogenase sample was prepared from a culture of Azotobacter vinelandii; endogenous in cells; host or cells: Azotobacter vinelandii culture; French press lysate, 10,000 x g supernatant (crude)
# Sequence (P00459 2-290 limits assumed): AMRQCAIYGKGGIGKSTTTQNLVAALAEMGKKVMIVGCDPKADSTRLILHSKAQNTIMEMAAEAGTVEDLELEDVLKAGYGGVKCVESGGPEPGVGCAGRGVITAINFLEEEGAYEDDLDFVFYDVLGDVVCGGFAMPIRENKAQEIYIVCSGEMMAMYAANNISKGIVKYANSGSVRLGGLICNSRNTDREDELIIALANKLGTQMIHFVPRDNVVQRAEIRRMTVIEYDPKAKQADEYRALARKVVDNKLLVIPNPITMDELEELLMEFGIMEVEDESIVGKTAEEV
# EXPERIMENT_NOTES: Chloroplast-coupled evolution of hydrogen by nitrogenase in the absence of substrate
# Format: biochemical
# PROTOCOL_CONDITIONS: Table II; hydrogen evolution
# Method: For the bioassay, the nitrogenase sample was prepared from a culture of Azotobacter vinelandii grown to a cell density of about 1 g/l. […] The results obtained for acetylene reduction (nitrogen fixation) using the pyrazinium compounds of Examples 1 through 42 are summarized in Table I and are expressed as nmoles of ethylene produced per mg protein per minute. […]
Report only the number, with the unit % understood.

Form field: reported ACTIVITY RELATIVE TO FERREDOXIN (%) of C[n+]1ccnc(CCO)c1.[I-] [Compound 300]
30

Quick one: CCC(=O)Cc1c[n+](C)ccn1 [Compound 3500, 1-Methyl-3-(2-oxybutyl)pyrazinium iodide]
19

Can you check CCc1c[n+](C)ccn1 [Compound 4900] next?
8
